- Measured Target: WDR5-MYC (Homo sapiens, UniProt P61964)
- Assay Notes: Inhibition of WDR5 (unknown origin)/MYC (unknown origin) interaction
- Type: protein assay
Readout Name: IC50 (µM)

1) Cc1cc(=O)c(C(=O)NCc2c(F)cc(-c3cccc(S(=O)(=O)F)c3)cc2F)nn1-c1ccccc1 = 5.8

* * *

- Measured Target: UniProt P61964
- Assay Notes: Inhibition of N-terminal his-tagged WDR5 (1 to 334 residues) (unknown origin) measured after 90 mins by HTRF assay
Readout Name: IC50 (nM)

1) Cc1cc(=O)c(C(=O)NCc2c(F)cc(-c3cccc(S(=O)(=O)F)c3)cc2F)nn1-c1ccccc1 = 300

* * *

- Assay Notes: Apparent permeability of the compound in dog MDCKII-LE cells measured upto 1.5 hrs
- Type: ADME, cell-based, Canis lupus familiaris
- Condition Label: MDCK
Readout Name: Papp at 1.5 h (×10⁻⁶ cm/s)

1. CCCC[C@@H](Cc1c(F)cc(-c2cccc(S(=O)(=O)F)c2)cc1F)C(=O)Nc1nnn[nH]1 = 0.96
2. Cc1cc(=O)c(C(=O)NCc2c(F)cc(-c3cccc(S(=O)(=O)F)c3)cc2F)nn1-c1ccccc1 = 1.77

* * *

- Measured Target: WD repeat-containing protein 5 (Homo sapiens)
- Assay Notes: Inhibition of N-terminal his-tagged WDR5 (1 to 334 residues) (unknown origin) measured after 10 mins by HTRF assay
pIC50: −log10 of the molar value.
Readout Name: pIC50

1) Cc1cc(=O)c(C(=O)NCc2c(F)cc(-c3cccc(S(=O)(=O)F)c3)cc2F)nn1-c1ccccc1 = 5.68

* * *

- Measured Target: WDR5-MYC (Homo sapiens, UniProt P61964)
- Assay Notes: Inhibition of N-terminal his-tagged WDR5 (1 to 334 residues) (unknown origin)/Biotin tagged Myc (256-268 residues) (unknown origin) interaction measured after 1 hrs by HTRF assay
- Format: protein assay
pIC50: −log10 of the molar value.
Binary classification by pIC50, with 6 as an inclusive lower bound for TRUE; all other cases are FALSE.

1) Cc1cc(=O)c(C(=O)NCc2c(F)cc(-c3ccccc3)cc2F)nn1-c1ccccc1 = FALSE
2) CC(=O)c1cccc(-c2cc(F)c(CNC(=O)c3nn(-c4ccccc4)c(C)cc3=O)c(F)c2)c1 = FALSE
3) Cc1cc(=O)c(O)c(C(=O)NCc2ccc(-c3ccccc3C#N)cc2)o1 = FALSE
4) Cc1cc(=O)c(C(=O)N(C)Cc2c(F)cc(C3CCCOC3)cc2F)nn1-c1ccccc1 (stereo not drawn) = FALSE
5) Cc1cc(=O)c(C(=O)NCc2c(F)cc(-c3cccc(S(=O)(=O)F)c3)cc2F)nn1-c1ccccc1 = TRUE
6) Cc1cc(=O)c(C(=O)NCc2c(F)cc(-c3ccccc3)cc2F)nn1-c1cccnc1 = FALSE
7) Cc1cc(=O)c(C(=O)NCc2c(F)cc(C3=CC(=O)CCC3)cc2F)nn1-c1ccccc1 = FALSE
8) Cc1cc(=O)c(C(=O)NCc2c(F)cc(-c3cccc(C(C)O)c3)cc2F)nn1-c1ccccc1 (stereo not drawn) = FALSE
9) Cc1cc(=O)c(C(=O)NCc2c(F)cc(-c3cncnc3)cc2F)nn1-c1ccccc1 = FALSE
10) Cc1cc(=O)c(C(=O)NCc2c(F)cc(N3CC[C@H](F)C3)cc2F)nn1-c1cccc(C(=O)O)c1 = TRUE
11) Cc1cc(=O)c(C(=O)NCc2c(F)cc(-c3cccc(CO)c3)cc2F)nn1-c1ccccc1 = FALSE
12) Cc1cc(=O)c(C(=O)NCc2c(F)cc(N3CC[C@@H](F)C3)cc2F)nn1-c1cccc(C(N)=O)c1 = FALSE

* * *

- Assay Notes: Microsomal stability in mouse liver microsome assessed as intrinsic clearance
- Assay type: ADME
- Condition Label: liver microsomes, read-out: CLH
Readout Name: microsomal CLint (µL/min/mg)

1) Cc1cc(=O)c(C(=O)NCc2c(F)cc(-c3cccc(S(=O)(=O)F)c3)cc2F)nn1-c1ccccc1 = 46.9
2) CCCC[C@@H](Cc1c(F)cc(-c2cccc(S(=O)(=O)F)c2)cc1F)C(=O)Nc1nnn[nH]1 = 150

* * *

- Measured Target: WDR5-MYC (Homo sapiens, UniProt P61964)
- Assay Notes: Inhibition of N-terminal his-tagged WDR5 (1 to 334 residues) (unknown origin)/Biotin tagged Myc (256-268 residues) (unknown origin) interaction measured after 1 hrs by HTRF assay
- Assay type: protein assay
pIC50: −log10 of the molar value.
Readout Name: pIC50

1) Cc1cc(=O)c(C(=O)NCc2c(F)cc(C3CCCOC3)cc2F)nn1-c1ccccc1 (stereo not given) = 5.42
2) Cc1cc(=O)c(C(=O)NCc2c(F)cc(-c3cccnc3)cc2F)nn1-c1ccccc1 = 5.35
3) Cc1cc(=O)c(C(=O)NCc2c(F)cc(-c3cccc(S(=O)(=O)F)c3)cc2F)nn1-c1cccc(C(=O)O)c1 = 6.72
4) Cc1cc(=O)c(C(=O)NCc2c(F)cc(N3CC[C@@H](F)C3)cc2F)nn1-c1cccc(CC(N)=O)c1 = 5.50
5) Cc1cc(=O)c(C(=O)NCc2c(F)cc(N3CCCC(C)(C)C3)cc2F)nn1-c1ccccc1 = 5.61
6) Cc1cc(=O)c(C(=O)NCc2c(F)cc(N3CC[C@@H](O)C3)cc2F)nn1-c1ccccc1 = 5.43
7) Cc1cc(=O)c(C(=O)NCc2c(F)cc(N3CC[C@H](O)C3)cc2F)nn1-c1ccccc1 = 5.25
8) Cc1cc(=O)c(C(=O)NCc2c(F)cc(N3CCCC(F)(F)C3)cc2F)nn1-c1ccccc1 = 6.09
9) Cc1cc(=O)c(C(=O)NCc2c(F)cc(-c3cccc(C(=O)O)c3)cc2F)nn1-c1ccccc1 = 5.61
10) Cc1cc(=O)c(C(=O)NCc2c(F)cc(N3CCOCC3)cc2F)nn1-c1ccccc1 = 5.49

* * *

- Measured Target: WDR5-MYC (Homo sapiens)
- Assay Notes: Inhibition of N-terminal his-tagged WDR5 (1 to 334 residues) (unknown origin)/Biotin tagged Myc (256-268 residues) (unknown origin) interaction measured after 1 hrs by HTRF assay
- Type: protein assay
Measured IC50 by item
Readout Name: IC50 (µM)

1. Cc1cc(=O)c(C(=O)NCc2c(F)cc(-c3cccc(S(=O)(=O)O)c3)cc2F)nn1-c1ccccc1 = 0.91
2. Cc1cc(=O)c(C(=O)NCc2c(F)cc(N3CC[C@@H](F)C3)cc2F)nn1-c1cccc(CC(=O)O)c1 = 1.43
3. Cc1cc(=O)c(C(=O)NCc2c(F)cc(N3CC[C@@H](F)C3)cc2F)nn1-c1ccccc1 = 0.78
4. Cc1cc(=O)c(C(=O)NCc2c(F)cc(N3CC[C@H](F)C3)cc2F)nn1-c1ccccc1 = 1.2
5. Cc1cc(=O)c(C(=O)NCc2c(F)cc(N3CC[C@@H](F)C3)cc2F)nn1-c1cccc(C(=O)O)c1 = 1.23
6. Cc1cc(=O)c(C(=O)NCc2c(F)cc(N3CC[C@H](F)C3)cc2F)nn1-c1cccc(C(N)=O)c1 = 0.95
